TEST SYSTEM: Transient receptor potential cation channel subfamily V member 1 (Rattus norvegicus) (UniProt O35433)
ASSAY EXPLANATION: Agonist-induced 45 [Ca2+] influx relative to 300 nM capsaicin in vanilloid receptor expressing CHO cells
MEASUREMENT KIND: agonist efficacy (%)

{"MOLECULE": "Cc1ccc(CC(CNC(=S)OCc2ccc(NS(C)(=O)=O)cc2)COC(=O)C(C)(C)C)cc1C (stereo not given)", "MEASUREMENT KIND": "agonist efficacy", "ASSAY RESULT": 11}
{"MOLECULE": "Cc1ccc(CC(CNC(=S)N(O)Cc2ccc(NS(C)(=O)=O)cc2)COC(=O)C(C)(C)C)cc1C (stereo not given)", "MEASUREMENT KIND": "agonist efficacy", "ASSAY RESULT": 12}
{"MOLECULE": "Cc1ccc(CC(CNC(=S)OCc2ccc(NS(C)(=O)=O)c(F)c2)COC(=O)C(C)(C)C)cc1C (stereo not given)", "MEASUREMENT KIND": "agonist efficacy", "ASSAY RESULT": 7.5}
{"MOLECULE": "Cc1ccc(CC(COC(=O)C(C)(C)C)CN(O)/C(S)=N/Cc2ccc(NS(C)(=O)=O)cc2)cc1C (stereo not given)", "MEASUREMENT KIND": "agonist efficacy", "ASSAY RESULT": 12}
{"MOLECULE": "Cc1ccc(CC(CNC(=O)Cc2ccc(NS(C)(=O)=O)c(F)c2)COC(=O)C(C)(C)C)cc1C (stereo not given)", "MEASUREMENT KIND": "agonist efficacy", "ASSAY RESULT": 10}

====

TEST SYSTEM: Transient receptor potential cation channel subfamily V member 1 (Rattus norvegicus)
ASSAY EXPLANATION: In vitro antagonist effect against 50 nM capsaicin-induced 45 [Ca2+] influx in vanilloid receptor expressing CHO cells
Format: functional, cell-based
pIC50: −log10 of the molar value.
MEASUREMENT KIND: pIC50

In the examples that follow, each entry is paired with its recorded pIC50.
{"MOLECULE": "CC(C)(C)C(=O)OCC(CNC(=S)NCc1ccc(NS(C)(=O)=O)c(F)c1)Cc1ccc(C(C)(C)C)cc1 (stereo unspecified)", "TEST SYSTEM": "Transient receptor potential cation channel subfamily V member 1 (Rattus norvegicus)", "ASSAY RESULT": 7.28}
{"MOLECULE": "CC(C)(C)C(=O)OCC(Cc1ccc(C(C)(C)C)cc1)CN(O)/C(S)=N/Cc1ccc(NS(C)(=O)=O)c(F)c1 (stereo unspecified)", "TEST SYSTEM": "Transient receptor potential cation channel subfamily V member 1 (Rattus norvegicus)", "ASSAY RESULT": 5.00}
{"MOLECULE": "CC(C)(C)C(=O)OCC(CNC(=O)Cc1ccc(NS(C)(=O)=O)c(F)c1)Cc1ccc(C(C)(C)C)cc1 (stereo unspecified)", "TEST SYSTEM": "Transient receptor potential cation channel subfamily V member 1 (Rattus norvegicus)", "ASSAY RESULT": 6.36}
{"MOLECULE": "Cc1ccc(CC(CN/C(S)=N/Cc2ccc(NS(C)(=O)=O)cc2)COC(=O)C(C)(C)C)cc1C (stereo unspecified)", "TEST SYSTEM": "Transient receptor potential cation channel subfamily V member 1 (Rattus norvegicus)", "ASSAY RESULT": 7.17}
{"MOLECULE": "Cc1ccc(CC(CNC(=S)NCc2ccc(NS(C)(=O)=O)c(F)c2)COC(=O)C(C)(C)C)cc1C (stereo unspecified)", "TEST SYSTEM": "Transient receptor potential cation channel subfamily V member 1 (Rattus norvegicus)", "ASSAY RESULT": 8.11}
{"MOLECULE": "Cc1ccc(CC(CNC(=O)Cc2ccc(NS(C)(=O)=O)cc2)COC(=O)C(C)(C)C)cc1C (stereo unspecified)", "TEST SYSTEM": "Transient receptor potential cation channel subfamily V member 1 (Rattus norvegicus)", "ASSAY RESULT": 6.34}
{"MOLECULE": "Cc1ccc(CC(COC(=O)C(C)(C)C)CN(O)/C(S)=N/Cc2ccc(NS(C)(=O)=O)cc2Cl)cc1C (stereo unspecified)", "TEST SYSTEM": "Transient receptor potential cation channel subfamily V member 1 (Rattus norvegicus)", "ASSAY RESULT": 6.12}
{"MOLECULE": "Cc1ccc(CC(CNC(=S)N(O)Cc2ccc(NS(C)(=O)=O)cc2)COC(=O)C(C)(C)C)cc1C (stereo unspecified)", "TEST SYSTEM": "Transient receptor potential cation channel subfamily V member 1 (Rattus norvegicus)", "ASSAY RESULT": 6.48}

[A] Cc1ccc(CC(CNC(=S)OCc2ccc(NS(C)(=O)=O)cc2)COC(=O)C(C)(C)C)cc1C (stereo unspecified)
[B] Cc1ccc(CC(CNC(=S)OCc2ccc(NS(C)(=O)=O)c(F)c2)COC(=O)C(C)(C)C)cc1C (stereo unspecified)
[C] Cc1ccc(CC(COC(=O)Cc2ccc(NS(C)(=O)=O)cc2)COC(=O)C(C)(C)C)cc1C (stereo unspecified)
[in] Order these by pIC50, descending, and give the full ranking. Kindly provide the labels arranged according to the requested ordering.
[out] B, A, C
(B: 6.77, A: 6.36, C: 5.44)

====

TEST SYSTEM: Transient receptor potential cation channel subfamily V member 1 (Rattus norvegicus, UniProt O35433)
Sequence (O35433 whole entry): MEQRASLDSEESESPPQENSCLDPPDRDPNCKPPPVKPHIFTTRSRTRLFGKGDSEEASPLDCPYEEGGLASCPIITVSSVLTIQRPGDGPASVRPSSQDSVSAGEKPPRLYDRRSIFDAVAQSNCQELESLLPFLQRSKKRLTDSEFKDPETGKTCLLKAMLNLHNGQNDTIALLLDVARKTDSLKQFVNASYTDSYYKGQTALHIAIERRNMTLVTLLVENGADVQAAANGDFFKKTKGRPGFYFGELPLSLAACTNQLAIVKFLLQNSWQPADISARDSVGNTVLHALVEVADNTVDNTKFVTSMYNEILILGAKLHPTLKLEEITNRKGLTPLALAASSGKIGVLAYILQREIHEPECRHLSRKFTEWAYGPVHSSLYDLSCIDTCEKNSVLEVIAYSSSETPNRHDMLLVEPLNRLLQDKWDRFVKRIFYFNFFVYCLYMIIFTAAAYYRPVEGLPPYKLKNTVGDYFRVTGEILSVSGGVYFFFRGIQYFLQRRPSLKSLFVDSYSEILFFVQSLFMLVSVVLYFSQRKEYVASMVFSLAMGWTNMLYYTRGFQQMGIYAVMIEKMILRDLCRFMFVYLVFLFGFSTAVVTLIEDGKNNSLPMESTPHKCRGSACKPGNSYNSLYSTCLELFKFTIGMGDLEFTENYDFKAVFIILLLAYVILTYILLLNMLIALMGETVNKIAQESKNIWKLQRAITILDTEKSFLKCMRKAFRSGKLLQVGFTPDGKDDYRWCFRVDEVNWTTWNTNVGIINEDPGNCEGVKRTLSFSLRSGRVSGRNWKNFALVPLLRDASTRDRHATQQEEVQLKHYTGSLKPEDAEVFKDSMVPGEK
ASSAY EXPLANATION: Agonist effect on 45 [Ca2+] influx in vanilloid receptor expressing CHO cells relative to maximal capsaicin (300 nM) response, weak effect at 30 µM
ASSAY CONDITIONS: cho

{"COMPOUND": "Cc1ccc(CC(CNC(=O)Cc2ccc(NS(C)(=O)=O)cc2)COC(=O)C(C)(C)C)cc1C (centres undefined)", "EC50": "Partially active"}
{"COMPOUND": "Cc1ccc(CC(CNC(=S)N(O)Cc2ccc(NS(C)(=O)=O)c(F)c2)COC(=O)C(C)(C)C)cc1C (centres undefined)", "EC50": "Partially active"}
{"COMPOUND": "Cc1ccc(CC(CNC(=S)N(O)Cc2ccc(NS(C)(=O)=O)cc2)COC(=O)C(C)(C)C)cc1C (centres undefined)", "EC50": "Partially active"}
{"COMPOUND": "Cc1ccc(CC(CNC(=S)OCc2ccc(NS(C)(=O)=O)cc2)COC(=O)C(C)(C)C)cc1C (centres undefined)", "EC50": "Partially active"}

====

TEST SYSTEM: UniProt O35433
MEASUREMENT KIND: Ki (nM)

[1] CC(C)(C)C(=O)OCC(CNC(=S)NCc1ccc(NS(C)(=O)=O)c(F)c1)Cc1ccc(C(C)(C)C)cc1 (stereo not drawn)
[2] COc1cc(CO/C(S)=N/CC(COC(=O)C(C)(C)C)Cc2ccc(C)c(C)c2)ccc1NS(C)(=O)=O (stereo not drawn)
[in] Select the item whose Ki value is smaller, choosing between 1 and 2 . State your choice using its label.
[out] 1

====

TEST SYSTEM: Transient receptor potential cation channel subfamily V member 1 (Rattus norvegicus) (UniProt O35433)
ASSAY EXPLANATION: Agonist-induced 45 [Ca2+] influx relative to 300 nM capsaicin in vanilloid receptor expressing CHO cells
MEASUREMENT KIND: agonist efficacy (%)

In the examples that follow, each entry is paired with its recorded agonist efficacy.
{"MOLECULE": "CC(C)(C)C(=O)OCC(CNC(=O)Cc1ccc(NS(C)(=O)=O)c(F)c1)Cc1ccc(C(C)(C)C)cc1 (centres undefined)", "UNIT ANNOTATION": "%", "agonist efficacy": 7}
{"MOLECULE": "CC(C)(C)C(=O)OCC(CNC(=S)NCc1ccc(NS(C)(=O)=O)c(F)c1)Cc1ccc(C(C)(C)C)cc1 (centres undefined)", "UNIT ANNOTATION": "%", "agonist efficacy": 5}

[A] CC(C)(C)C(=O)OCC(Cc1ccc(C(C)(C)C)cc1)CN(O)/C(S)=N/Cc1ccc(NS(C)(=O)=O)c(F)c1 (centres undefined)
[B] Cc1ccc(CC(CNC(=O)Cc2ccc(NS(C)(=O)=O)cc2)COC(=O)C(C)(C)C)cc1C (centres undefined)
[in] Select the item whose agonist efficacy value is smaller, choosing between A and B . State your choice using its label.
[out] B

====

TEST SYSTEM: Transient receptor potential cation channel subfamily V member 1 (Rattus norvegicus)
ASSAY EXPLANATION: Agonist effect on 45 [Ca2+] influx in vanilloid receptor expressing CHO cells relative to maximal capsaicin (300 nM) response
Type: functional, cell-based
pEC50: −log10 of the molar value.
MEASUREMENT KIND: pEC50

[a] COc1cc(CC(=O)NCC(COC(=O)C(C)(C)C)Cc2ccc(C)c(C)c2)ccc1NS(C)(=O)=O (configuration not stated)
[b] COc1cc(C/N=C(\S)N(O)CC(COC(=O)C(C)(C)C)Cc2ccc(C)c(C)c2)ccc1NS(C)(=O)=O (configuration not stated)
[in] Select the item whose pEC50 value is smaller, choosing between a and b . State your choice using its label.
[out] b
(b: 6.09, a: 6.61)
